System: SF-295 CNS
experimentNotes: NCI-60 one-dose screen, 48 h (100 = growth as untreated, 0 = no growth, -100 = all killed)
runConditions: 10 µM unless noted
The panel holds about 83,000 compounds, 20% with a hit somewhere; the sample as a whole holds those more often.
metric: growth (%)
Answers are plain numbers, in %.

Fill in growth for each of the 7 molecules listed.
1. Cc1ccc(Cl)cc1Nc1nc(C(F)(F)F)ccc1C(=O)N/N=C/c1cccnc1
2. Cc1ccccc1Cn1cnc2ccc(-c3cc(NC(=O)c4ccc(NC5CCN(C)CC5)cc4)n[nH]3)cc21
3. Oc1ccc(CCn2c(O)c(/C=C3\CN=c4ccccc4=N3)sc2=S)cc1
4. O=C1C(Cl)=C(Oc2ccccc2)C(=O)c2ccccc21
5. O=C1NC(=O)c2c1c1c3ccccc3ccc1c1[nH]c3ccc(Br)cc3c21
6. CC1=Nc2cnc(Nc3ccc(OCCN4CCCCC4)cc3)nc2Nc2ccccc21
7. CCCCCCCCCCCCCCCCCCOc1ccccc1CC(=O)OCC[N+]1(C)CCCC1

Response:
1. -20.6
2. 89.9
3. 93.6
4. 76.6
5. 24.3
6. 76.5
7. 58

====

System: UACC-62 melanoma
experimentNotes: NCI-60 one-dose screen, 48 h (100 = growth as untreated, 0 = no growth, -100 = all killed)
runConditions: 10 µM unless noted
Protocol: Growth inhibition of the UACC-62 human tumor cell line is measured as a screen for anti-cancer activity. Cells are grown in 96 well plates and exposed to the test compound for 48 hours. Compounds are tested at a single concentration, which is 10^-5 M for most compounds. The reported endpoint is percent growth (GI% or GIPRCNT), where numbers from 0 - 100% represent growth inhibition, and numbers from -100% - 0 represent cell death. For example, a value of 40 represents 60% growth inhibition. […]
Compounds without any hit were thinned out: in the full panel of roughly 83,000, 20% have a hit.
Param label: returns rule met when growth < 10%, returns rule not met otherwise, including exact equality.

Query: Record CSc1nnc(-c2cnn3c2NC(c2ccccc2)C3)n1-c1ccc(C(F)(F)F)cc1 (stereo not drawn) : is its growth strictly below 10%?
Response: rule not met

Query: In plain terms, does C/C(=N\NC(=O)c1ccccc1O)c1cccc(/C(C)=N/NC(=O)c2ccccc2O)n1 come in under 10% for growth?
Response: rule not met

Query: Lab note: confirm whether the reported growth for this molecule is below 10%, equality not counting. molecule: COC(=O)c1n[nH]c2ccc3nc(-c4cn[nH]c4C(F)(F)F)c4c(c3c12)CCCC4
Response: rule not met

Query: Problem: For the molecule Clc1ccc(CNc2c3ccccc3nc3ccccc23)cc1 , is growth under 10%?
Response: rule not met

Query: growth under 10%? Item: Nc1nc(=S)c2ncn(C3OC(COP(=O)(O)O)C(O)C3O)c2[nH]1 (stereo not drawn)
Response: rule not met

Query: In plain terms, does C=C1C(=O)O[C@H]2[C@H]1CC/C(COC(=O)CCSCCC(=O)OC/C1=C/CC[C@@]3(C)O[C@H]3[C@H]3OC(=O)C(=C)[C@@H]3CC1)=C\CC[C@@]1(C)O[C@@H]21 come in under 10% for growth?
Response: rule met

Query: Please check: growth for C1=CN2CC(c3ccccc3)=NNC2c2ccccc21 (stereo not drawn) , strictly under 10% or not?
Response: rule not met

Query: Quick check: does COC1C[C@H](O[C@@H]2C[C@H](O[C@@H]3C[C@H](O[C@@H]4C(=O)c5c(cc6cc(O[C@H]7C[C@@H](O[C@H]8C[C@@H](O)[C@H](O)C(C)O8)[C@H](O)C(C)O7)c(C)c(O)c6c5O)C[C@H]4C(OC)C(=O)[C@@H](O)[C@@H](C)O)OC(C)[C@H]3O)OC(C)[C@@H]2O)OC(C)[C@@H]1O (stereo partly drawn) have growth under 10%?
Response: rule met

====

Test system: LOX IMVI melanoma
experimentNotes: NCI-60 one-dose screen, 48 h
runConditions: 10 µM unless noted
The panel holds about 83,000 compounds, 20% with a hit somewhere; the sample as a whole holds those more often. Activity calls are given as the source filed them. The calls were made as follows: active = growth percent below 10; inactive = the rest.
API: response.call in active, inactive

Cc1cc2c(O)c(-c3cccc(Cl)c3)c3sc(=O)oc3c2cc1C inactive
COC(=O)CCC(=O)C(=O)OC active
Fc1cc2c(cc1Cl)N(c1ncnc3ccc(-c4cnc5[nH]ncc5c4)cc13)CC2 inactive
COc1cc(/C=C/C(=O)c2cccc(Nc3nc(Nc4ccccc4)nc(Nc4ccccc4)n3)c2)cc(OC)c1OC inactive
O=C(CCCCCCN1CC(=O)N2[C@H](c3cc(Br)cs3)c3[nH]c4ccccc4c3C[C@H]2C1=O)NO active

Query: Hi, do you know how COC1=CC(c2ccc[nH]2)=N/C1=C\c1[nH]c(C)c(C(=O)OCc2ccccc2)c1C came out in this test?
Response: active

Query: Recorded test outcome, item Cc1cc(=O)[nH]c2c(C#N)cnn12
Response: inactive

Query: Per the records of this test, what outcome belongs to Fc1ccc2[nH]cc(-c3nonc3-c3c[nH]c4ccc(Br)cc34)c2c1 ?
Response: active

Query: Please state the recorded outcome for this molecule: CN1C(=O)/C(=C/c2cn(-c3ccccc3)nc2-c2ccccc2)SC1=S
Response: inactive

Query: For CCOC(=O)c1[nH]c(=O)c2c(C)nc(-c3ccccc3)cc2c1O , what call appears in the results of this test?
Response: inactive

Query: Look up the recorded call for CCOc1ccc(NC(=O)CSc2oc(-c3ccccc3)nc2S(=O)(=O)c2ccc(F)cc2)cc1 in this test.
Response: inactive

====

Test system: SR leukemia
experimentNotes: NCI-60 one-dose screen, 48 h (100 = growth as untreated, 0 = no growth, -100 = all killed)
runConditions: 10 µM unless noted
Compounds without any hit were thinned out: in the full panel of roughly 83,000, 20% have a hit.
Exercise: for every item that follows, state its recorded growth.
Numbers only, in %.

Parameters: items (list). Returns: growth for each item.
1. Cc1cccnc1NC(=S)Nc1ncccc1C
2. CCOc1nc(-c2ccccc2)cc2c(O)c(C(=O)NN)[nH]c(=O)c12
3. COc1ccc2c(c1)[n+]([O-])c(C(=O)/C=C/C=C(\Cl)c1cc(OC)c(OC)c(OC)c1)c(C)[n+]2[O-]
4. Cc1ccc(-c2cc(-c3ccc(Cl)cc3)nc(NC(=O)c3cccnc3)n2)cc1
5. CCOC(=O)C1=NN(c2ccccc2)C(=O)/C1=C\N1C(=O)CC(=O)NC1=S

Response:
1: 88.5; 2: 90.8; 3: 89.5; 4: 89.1; 5: 92.6

====

Exercise: for every item that follows, state its recorded growth.
System: HOP-62 NSCLC
experimentNotes: NCI-60 one-dose screen, 48 h (100 = growth as untreated, 0 = no growth, -100 = all killed)
runConditions: 10 µM unless noted
The panel holds about 83,000 compounds, 20% with a hit somewhere; the sample as a whole holds those more often.
Answers are plain numbers, in %.

Here are 10 molecules together with their reported answers.
molecule	growth, %
O=C(CCC(=O)N/N=C/c1ccccc1O)N/N=C/c1ccccc1O	36.2
COc1ccccc1Nc1nc2c(s1)C1=CC[C@H]3[C@@H]4CC[C@H]([C@H](C)CCCC(C)C)[C@@]4(C)CC[C@@H]3[C@@]1(C)CC2	95.9
CCOC(=O)CNP(=O)(OC[C@@H](Cc1ccccc1)NC(=O)c1cc2ccccc2s1)Oc1ccccc1 (stereo not given in full)	85.3
C=C(C)[C@@H]1CC[C@]2(C(=O)O)CC[C@]3(C)[C@H](CC[C@@H]4[C@@]5(C)C[C@@H](Cc6cn(CCO[C@@H]7O[C@H](COC(C)=O)[C@H](OC(C)=O)[C@H](OC(C)=O)[C@H]7OC(C)=O)nn6)[C@H](O)C(C)(C)[C@@H]5CC[C@]43C)[C@@H]12	80.7
O=C1c2ccc3c4ccc5c6c(ccc(c7ccc(c2c37)C(=O)N1CCC[P+](c1ccccc1)(c1ccccc1)c1ccccc1)c64)C(=O)N(CCC[P+](c1ccccc1)(c1ccccc1)c1ccccc1)C5=O	60.3
C=CCc1c2c(c(OC)c3ccoc13)C(=O)/C(=C/c1ccccc1OC)O2	80
CC1(C)CCC(S(=O)(=O)c2ccc3c(c2)/C(=N\O)c2cc(S(=O)(=O)N4CCC(O)(c5cccc(C(F)(F)F)c5)CC4)ccc2-3)CC1	-92.1
Fc1cc(F)cc(C(c2c[nH]c3ccccc23)c2c[nH]c3ccccc23)c1	91.1
COc1ccc(CC(C#N)c2cc3ccccc3[nH]2)cc1 (stereo not given)	89
CCOP(=O)(OCC)c1nc(-c2ccccc2)oc1NCc1cccnc1	100

Each molecule below has a reported value. Please supply its growth.
1. CCOC(=O)C(=Cc1cccc(Br)c1)C(=O)OCC
2. COc1ccc(-c2nc3c(c(-c4ccccc4)nn3-c3ccccc3)c(-c3ccc(N4CCOCC4)cc3)c2C#N)cc1
3. Cc1nc(-c2ccccc2)cc2c(O)c(C(=O)NN)[nH]c(=O)c12
4. O=C(CSc1nc2ccc([N+](=O)[O-])cc2[nH]1)Nc1cccc(C(F)(F)F)c1
5. O=C1Nc2ccccc2/C1=C\c1nc(-c2ccccc2)n2ccccc12

Response:
1: 85.1; 2: 104; 3: 107; 4: 27.6; 5: 92.9

Hey, quick one: what's growth for each of these?
1. CCOc1ccc(NC(=O)CSc2oc(-c3ccccc3)nc2S(=O)(=O)c2ccc(F)cc2)cc1
2. Cc1cc2c(O)c(-c3cccc(Cl)c3)c3sc(=O)oc3c2cc1C
3. CN1CCN(C(=O)c2ccc(NC(=O)Nc3ccc(-c4nc(N5CCOCC5)c5cccn5n4)cc3)cc2)CC1

Response:
1. 58.2
2. 76.7
3. -13.5

// for each molecule below, give its growth
1. O=C(OCc1ccc2c(Cl)cc(Cl)c(O)c2n1)n1cncn1
2. C=C1C(=O)O[C@H]2[C@H]1CC/C(COC(=O)NCc1cc[nH]c1)=C\CC[C@@]1(C)O[C@@H]21
3. COc1ccc(OC)c(C(=O)/C=C/c2cc3c(c(OC)c2OC)OCO3)c1

Response:
1: 27.5; 2: 87.3; 3: 101

Below are some molecules; for each one, tell me its growth.
1. CS(=O)(=O)Nc1cc(-c2ccc3ncnc(Nc4c(Cl)ccc5c4OCO5)c3c2)cnc1Cl
2. CC(C)c1ccc(NC(=O)Nc2ccc(NC(=O)CCCC(=O)NOCc3ccccc3)cc2)cc1
3. CC(C)N1CN2C(=S)NC3C2N(C1)C(=S)N3C (stereo not given)
4. CNc1nc(S(=O)c2ccc(C#N)cc2)nc2ccccc12 (stereo not given)
5. OCCOCCN(Cc1ccccn1)Cc1cc(I)cc(I)c1O
6. O=C(O)[C@@H]1c2ccccc2-c2ccccc2[C@H]1C(=O)O

Response:
1. 9.21
2. 91.2
3. 103
4. 98.5
5. 84.9
6. 90.8

These measurements were taken from PubChem BioAssay (NCI).
